EXPERIMENTAL_TARGET: Epidermal growth factor receptor (Homo sapiens, UniProt P00533, L858R/T790M)
ASSAY_PROTOCOL: Inhibition of EGFR T790M/L858R double mutant phosphorylation in human H1975 cells preincubated for 1 hr followed by EGF stimulation for 8 mins by electrochemiluminescent immunoassay
Assay type: cell-based
ASSAY_ENDPOINT: EC50

>>> print(df.to_string())
                                test_smiles  reported_value
0  COc1ccccc1Nc1cc[nH]c(=O)c1C(=O)Nc1ccc(N2CCN(C)CC2)cc1         1090 nM
1  CN1CCN(c2ccc(NC(=O)c3c(NC[C@@H](O)c4cccc(Cl)c4)cc[nH]c3=O)cc2)CC1          412 nM
2  COc1ccccc1Nc1cc[nH]c(=O)c1C(=O)Nc1ccc(C2CCN(C)CC2)cc1          433 nM

---

Ratio Ki(app) values, listed per item
Organism: Homo sapiens
ASSAY_PROTOCOL: Selectivity ratio of Ki(app) for human N-terminal GST-tagged EGFR catalytic domain (669 to 1210 residues) expressed in baculovirus expression system to Ki(app) for human EGFR catalytic domain (668 to 1210 residues) T790M/L858R double mutant
ASSAY_ENDPOINT: Ratio Ki(app)

>>> print(df.to_string())
                                 test_smiles  censor_symbol  reported_value
 0  Cc1ccccc1Nc1cc[nH]c(=O)c1C(=O)Nc1ccc(N2CCN(C)CC2)cc1              =              38
 1  CN1CCN(c2ccc(NC(=O)c3c(Nc4ccc(Cl)cc4)cc[nH]c3=O)cc2)CC1              >               4
 2  COc1ccccc1N(C)c1cc[nH]c(=O)c1C(=O)Nc1ccc(N2CCN(C)CC2)cc1              =               1
 3  CN1CCN(c2ccc(NC(=O)c3c(NCc4ccccc4)cc[nH]c3=O)cc2)CC1              =               1
 4  COc1ccccc1Nc1cc[nH]c(=O)c1C(=O)Nc1ccc(N2CCN(C)CC2)c(C)c1              =              16
 5  CN1CCN(c2ccc(NC(=O)c3c(NC[C@@H](O)c4cccc(Cl)c4)cc[nH]c3=O)cc2)CC1              <               1
 6  CCc1cc(NC(=O)c2c(Nc3ccccc3OC)cc[nH]c2=O)ccc1N1CCN(C)CC1              >              80
 7  CN1CCN(c2ccc(NC(=O)c3c(NCCc4ccccc4)cc[nH]c3=O)cc2)CC1              <               1
 8  CN1CCN(c2ccc(NC(=O)c3c(Nc4ccnc(N)n4)cc[nH]c3=O)cc2)CC1              =             213
 9  O=C(Nc1ccccc1)c1c(NCCc2cccc(Cl)c2)cc[nH]c1=O              =               2
10  CN1CCN(c2ccc(NC(=O)c3c(Nc4ccccn4)cc[nH]c3=O)cc2)CC1              >              24
11  COc1ccccc1Nc1cc[nH]c(=O)c1C(=O)Nc1ccc(C2CCN(C)CC2)cc1              =              29
12  CN1CCN(c2ccc(NC(=O)c3c(NCCc4ccc(Cl)cc4)cc[nH]c3=O)cc2)CC1              <               1
13  COc1ccccc1Nc1cc[nH]c(=O)c1-c1nc2c(C(C)C)cccc2[nH]1              =              42
14  CN1CCN(c2ccc(NC(=O)c3c(Nc4ccncc4N)cc[nH]c3=O)cc2)CC1              >               8
15  CN1CCN(c2ccc(NC(=O)c3c(NCCc4cccc(Cl)c4)cc[nH]c3=O)cc2)CC1              =               1
16  CN(C)c1ccc(NC(=O)c2c(NCCc3cccc(Cl)c3)cc[nH]c2=O)cc1              =               1
17  COc1ccccc1Nc1cc[nH]c(=O)c1C(=O)Nc1ccc(N2CCS(=O)(=O)CC2)cc1              >              34
18  COc1ccccc1Nc1cc[nH]c(=O)c1-c1nc2c(C(C)C)ccc(C)c2[nH]1              =              27
19  COc1ccccc1Nc1cc[nH]c(=O)c1C(=O)Nc1ccc(N2CCN(C)CC2)nc1              >              33
20  CN1CCN(c2ccc(NC(=O)c3c(Nc4cccc(Cl)c4)cc[nH]c3=O)cc2)CC1              =              16
21          COc1ccccc1Nc1cc[nH]c(=O)c1C(N)=O              >             3.6
22  CN1CCN(c2ccc(NC(=O)c3c(N)cc[nH]c3=O)cc2)CC1              >               7
23  CN1CCN(c2ccc(NC(=O)c3c(Nc4ccncn4)cc[nH]c3=O)cc2)CC1              >              27
24  CN1CCN(c2ccc(NC(=O)c3c(Nc4ccccc4)cc[nH]c3=O)cc2)CC1              >              18
25  COc1ccccc1Nc1cc[nH]c(=O)c1C(=O)Nc1ccc(CN2CCN(C)CC2)cc1              =              22
26  COc1ccccc1Nc1cc[nH]c(=O)c1C(=O)Nc1ccc(N2CCN(C)CC2)cn1              =               1
27  COc1ccccc1Nc1cc[nH]c(=O)c1C(=O)Nc1ccc(N2CCN(C)CC2)cc1              =              58
28  COc1ccccc1Nc1cc[nH]c(=O)c1C(=O)Nc1ccc(N2CCC(C)CC2)cc1              >             4.1
29  COc1ccccc1Nc1cc[nH]c(=O)c1C(=O)Nc1ccc(N2CCCN(C)CC2)cc1              =              57
30  CN1CCN(c2ccc(NC(=O)c3c(Nc4ccccc4Cl)cc[nH]c3=O)cc2)CC1              =              18
